Data provenance: patent US20250368649A1

STUDY_TARGET: KRas G13D (Homo sapiens, UniProt P01116, G13D)
Sequence (P01116 1-169 isoform P01116-2 G13D): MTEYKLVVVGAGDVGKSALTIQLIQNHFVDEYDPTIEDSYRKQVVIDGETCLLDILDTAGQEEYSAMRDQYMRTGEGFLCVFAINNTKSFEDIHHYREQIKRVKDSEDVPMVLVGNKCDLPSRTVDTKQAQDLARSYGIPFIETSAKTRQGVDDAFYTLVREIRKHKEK
Type: binding
CONDITION_DESCRIPTION: TR-FRET displacement, read-out: Binding to KRas (IC50 nM) G13D
Consider the following molecules; for each one, report its IC50.

Consider the worked cases shown below.
CC1(O)COCCN(c2nc(OCC34CCCN3CCC4)nc3c2CCN(c2cc(O)cc(Cl)c2C2CC2)C3)C1 (centres unmarked) [Example 436]: 10 nM
C[C@@H]1C[C@@H]1c1c(Cl)cc2[nH]ncc2c1N1CCc2c(nc(OCC34CCCN3CCC4)nc2N2CCC[C@]3(C2)NC(=O)NC3=O)C1 [Example 449]: < 2 nM
O=C1NC(=O)C2(CCCN(c3nc(OCC45CCCN4CCC5)nc4c3CCN(c3cc(O)cc(Cl)c3C3CC3)C4)C2)N1 (centres unmarked) [Example 439]: < 2 nM
CCc1cccc2cccc(N3CCc4c(nc(OCC5(CN(C)C)CC5)nc4NCc4ccnn4C4CC4(F)F)C3)c12 (centres unmarked) [Example 541]: 200 nM
CCc1c(F)ccc2cccc(N3CCc4c(nc(OC[C@@]56CCCN5C[C@H](F)C6)nc4N4CCCn5nc(C(=O)N(C)C)cc5C4)C3)c12 [Example 481]: 15 nM
Cc1cc2[nH]ncc2c(N2CCc3c(nc(OCC45CCCN4CCC5)nc3N3CC4CC(O)C(C4)C3)C2)c1C (centres unmarked) [Example 457]: 1870 nM
Cc1cc2[nH]ncc2c(N2CCc3c(nc(OCC45CCCN4CCC5)nc3N3CCCC4(CNC(=O)N4)C3)C2)c1C (centres unmarked) [Example 461]: 26 nM
Oc1cc(Cl)c(C2CC2)c(N2CCc3c(nc(OCC45CCCN4CCC5)nc3N3CCC[C@]4(C3)C[C@H](O)C4)C2)c1 [Example 440]: 73 nM
CCc1cccc2cccc(N3CCc4c(nc(OCC5(CN(C)C)CC5)nc4NC4CC(n5ccnn5)C4)C3)c12 (centres unmarked) [Example 703]: 16100 nM
CCc1cccc2cccc(N3CCc4c(nc(OCC5(CN(C)C)CC5)nc4N4Cc5nncn5C(C)C4)C3)c12 (centres unmarked) [Example 519]: 8140 nM

Quick request: IC50 for each listed item, please.
1. Oc1cc(Cl)c(C2CC2)c(N2CCc3c(nc(OCC45CCCN4CCC5)nc3N3CCC[C@]4(C3)C[C@@H](O)C4)C2)c1 [Example 441]
2. CCc1cccc2cccc(N3CCc4c(nc(OCC5(CN(C)C)CC5)nc4NCc4c(C)nnn4CC)C3)c12 [Example 518]
3. CCc1cccc2cccc(N3CCc4c(nc(OCC5(CN(C)C)CC5)nc4NC4CN(c5nncs5)C4)C3)c12 [Example 674]
4. CCc1cccc2cccc(N3CCc4c(nc(OCC5(CN(C)C)CC5)nc4NCc4cnc(C)nc4N)C3)c12 [Example 677]

1: 27 nM; 2: 249 nM; 3: 4050 nM; 4: 13900 nM

---

Consider the following compounds; for each one, report its IC50.
STUDY_TARGET: KRas G12D (Homo sapiens, UniProt P01116, G12D)
Sequence (P01116 1-169 isoform P01116-2 G12D): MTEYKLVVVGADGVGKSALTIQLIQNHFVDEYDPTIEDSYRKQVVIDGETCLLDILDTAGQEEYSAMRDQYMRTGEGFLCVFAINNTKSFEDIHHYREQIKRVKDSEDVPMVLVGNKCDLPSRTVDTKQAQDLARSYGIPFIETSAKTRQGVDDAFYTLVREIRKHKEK
MEASUREMENT_NOTES: biochemical
CONDITION_DESCRIPTION: Binding to KRas (IC50 nM) G12D, TR-FRET displacement, KRas G12D

Quick request: IC50 for each listed item, please.
1. CCc1c(F)ccc2cc(O)cc(N3CCc4c(nc(OCC5(CN(C)C)CC5)nc4N4CCCC(c5cn(C)nn5)C4)C3)c12 (stereo not drawn) [Example 598]
2. CCc1c(F)ccc2cc(O)cc(N3CCc4c(nc(OCC5(CN(C)C)CC5)nc4N4CCCC5(CCO5)C4)C3)c12 (stereo not drawn) [Example 588]
3. CCc1c(F)ccc2cc(O)cc(N3CCc4c(nc(OC[C@@]56CCCN5C[C@H](F)C6)nc4N4CCCn5nc(C(=O)N6CC7CC(C6)N(C)C7)cc5C4)C3)c12 (stereo partly drawn) [Example 500]

16 nM
< 2 nM
< 2 nM
